All figures here come from PubChem BioAssay (NCI).

test system: U251 CNS; test: NCI tumour cell line growth inhibition, 48 h
Field: TGI. Provide a value for each of the compounds that follow.

CCC1=C(CC)C1(C#N)[N+](=O)[O-]; > 100 µM

Provide TGI for all items below, preserving their order.
1. CCN(CC)c1ccc2cc3ccc(=[N+](CC)CC)cc-3oc2c1
2. COc1ccc2c(c1)N=C(N)n1c(nc3ccccc31)S2
3. CC(C)(O)[C@@H]1CC[C@](C)(C2[C@@H](O)C[C@@]3(C)C4C[C@H](OC5OCC(O)C(O)C5O)[C@H]5C(C)(C)[C@@H](OC6OCC(O)C(O)C6OC6OCC(O)C(O)C6O)CC[C@@]56C[C@@]46CC[C@]23C)O1 (some centres not stated)
4. O=C1CSC(c2ccc([N+](=O)[O-])cc2)N1c1nc(-c2ccc3c(c2)CCCC3)cs1 (configuration not stated)
5. CC1(C)CC(=O)c2c(nc3c4c([nH]c(-c5ccc([N+](=O)[O-])cc5)c24)CC(C)(C)C3)C1
6. Cc1ccc(Nc2nc3ccccc3c(=O)n2N)cc1

## Output
1: 2.02 µM; 2: 29.4 µM; 3: > 100 µM; 4: > 100 µM; 5: > 100 µM; 6: > 100 µM

Provide TGI for all items below, preserving their order.
1. CC(C)N(Cc1c(F)cccc1F)c1ccc(CO)c(Cl)c1
2. CN(C)c1ccc(/C=C(\NC(=O)c2ccccc2)C(=O)Nc2ccccc2C(=O)NCc2ccccc2)cc1
3. COC(=O)[C@@]1(C)CCC[C@]2(C)[C@H]3Cc4occc4[C@H](C)[C@@H]3CC[C@@]12O
4. COC1CC(Br)(C#N)C1 (configuration not stated)
5. Cn1cc/c(=N\N=c2/ccn(C)c3ccccc23)c2ccccc21

## Output
["17.3 µM", "> 100 µM", "44 µM", "> 100 µM", "29.1 µM"]

Provide TGI for all items below, preserving their order.
1. NC(=O)c1c(Br)n(C2OC(CO)C(O)C2O)c2ncnc(N)c12 (configuration not stated)
2. CC1(C)COP(=S)(c2ccccn2)O[C@@H]1c1ccccc1 (some centres not stated)
3. N#CCC(=O)N1CCCOCCC1

## Output
> 86.4 µM
> 100 µM
> 100 µM

Provide TGI for all items below, preserving their order.
1. Cc1ccc(C2C3Cc4ccccc4C3=NN2c2ccc(S(=O)(=O)NC(=O)NC3CCCCC3)cc2)cc1 (configuration not stated)
2. CCN(Cc1ccccn1)c1ccc(CO)c(Cl)c1

## Output
["30.4 µM", "> 100 µM"]
